Origin of the recorded values: ChEMBL document CHEMBL1132760

# ASSAY_INFO: In vitro activity against Staphylococcus aureus DNA gyrase subunit B supercoiling, expressed as IC50 novobiocin / IC50 compound
# Assay type: functional
Ratio reference
QUANTITY_KIND: Ratio

> print(dat)
                              record.smiles  result.number
1  C#CCONC(=O)O[C@H]1[C@@H](O)[C@H](Oc2ccc3c(O)c(C(C)=O)c(=O)oc3c2C)OC(C)(C)[C@@H]1OC            8.1
2  C#CCONC(=O)O[C@H]1[C@@H](O)[C@H](Oc2ccc3c(O)c(C(=O)Nc4cccnc4)c(=O)oc3c2C)OC(C)(C)[C@@H]1OC           0.67
3  C#CCONC(=O)O[C@H]1[C@@H](O)[C@H](Oc2ccc3c(=O)c(/C(C)=N/OC)c(O)oc3c2C)OC(C)(C)[C@@H]1OC           12.5
4  C#CCONC(=O)O[C@H]1[C@@H](O)[C@H](Oc2ccc3c(=O)c(/C(C)=N/OCOCCOC)c(O)oc3c2C)OC(C)(C)[C@@H]1OC              4
5  C#CCONC(=O)O[C@H]1[C@@H](O)[C@H](Oc2ccc3c(O)c(/C(C)=N/OCc4ccsc4)c(=O)oc3c2C)OC(C)(C)[C@@H]1OC            1.3

----------
# System: Escherichia coli
# ASSAY_INFO: In vitro activity against Escherichia coli DNA gyrase subunit B supercoiling, expressed as IC50 novobiocin / IC50 compound
# Type: functional
Recorded Ratio for the following compounds
QUANTITY_KIND: Ratio

> print(dat)
                              record.smiles  result.number
1  C#CCONC(=O)O[C@H]1[C@@H](O)[C@H](Oc2ccc3c(=O)c(C(=O)OCC)c(O)oc3c2C)OC(C)(C)[C@@H]1OC            5.6
2  CO[C@@H]1[C@@H](OC(=O)c2ccc(C)[nH]2)[C@@H](O)[C@H](Oc2ccc3c(O)c(C(N)=O)c(=O)oc3c2C)OC1(C)C           1.67
3  CO/N=C(\C)c1c(O)oc2c(C)c(O[C@@H]3OC(C)(C)[C@H](OC)[C@@H](OC(=O)c4ccc(C)[nH]4)[C@H]3O)ccc2c1=O            3.3
4  C=CCONC(=O)O[C@H]1[C@@H](O)[C@H](Oc2ccc3c(=O)c(C(=O)OCC)c(O)oc3c2C)OC(C)(C)[C@@H]1OC              2
5  CCOC(=O)c1c(O)oc2c(C)c(O[C@@H]3OC(C)(C)[C@H](OC)[C@@H](OC(N)=O)[C@H]3O)ccc2c1=O            1.6
6  CCOC(=O)c1c(O)oc2c(C)c(O[C@@H]3OC(C)(C)[C@H](OC)[C@@H](OC(=O)NC(C)C)[C@H]3O)ccc2c1=O          0.025
7  CCOC(=O)c1c(O)oc2c(C)c(O[C@@H]3OC(C)(C)[C@H](OC)[C@@H](OC(=O)NOC(C)C)[C@H]3O)ccc2c1=O              2

----------
Each entry below lists one item and its recorded MIC value.
# Tested on: Staphylococcus aureus
# ASSAY_INFO: Antibacterial activity against ofloxacin,oxacillin,erythromycin resistant Staphylococcus aureus 011GO64.
# Type: functional
QUANTITY_KIND: MIC (µg/mL)

> print(dat)
                               record.smiles  result.number
 1  C=CCONC(=O)O[C@H]1[C@@H](O)[C@H](Oc2ccc3c(=O)c(C(=O)OCC)c(O)oc3c2C)OC(C)(C)[C@@H]1OC             20
 2  C#CCONC(=O)O[C@H]1[C@@H](O)[C@H](Oc2ccc3c(=O)c(C(=O)NOCC)c(O)oc3c2C)OC(C)(C)[C@@H]1OC           0.08
 3  C#CCONC(=O)O[C@H]1[C@@H](O)[C@H](Oc2ccc3c(O)c(/C(C)=N/OCCN4CCOCC4)c(=O)oc3c2C)OC(C)(C)[C@@H]1OC            0.6
 4  C#CCONC(=O)O[C@H]1[C@@H](O)[C@H](Oc2ccc3c(=O)c(/C(C)=N/OCOCCOC)c(O)oc3c2C)OC(C)(C)[C@@H]1OC            0.6
 5  CC#CCONC(=O)O[C@H]1[C@@H](O)[C@H](Oc2ccc3c(=O)c(C(=O)OCC)c(O)oc3c2C)OC(C)(C)[C@@H]1OC             40
 6  C#CCONC(=O)O[C@H]1[C@@H](O)[C@H](Oc2ccc3c(O)c(C(=O)NCCN4CCOCC4)c(=O)oc3c2C)OC(C)(C)[C@@H]1OC           0.08
 7  C#CCONC(=O)O[C@H]1[C@@H](O)[C@H](Oc2ccc3c(=O)c(/C(C)=N/OC)c(O)oc3c2C)OC(C)(C)[C@@H]1OC           0.15
 8  C#CCONC(=O)O[C@H]1[C@@H](O)[C@H](Oc2ccc3c(=O)c(C(=O)OCC)c(O)oc3c2C)OC(C)(C)[C@@H]1OC            2.5
 9  C#CCONC(=O)O[C@H]1[C@@H](O)[C@H](Oc2ccc3c(=O)c(C(=O)NOC)c(O)oc3c2C)OC(C)(C)[C@@H]1OC            0.6
10  C#CCONC(=O)O[C@H]1[C@@H](O)[C@H](Oc2ccc3c(=O)c(/C(C)=N/OCC)c(O)oc3c2C)OC(C)(C)[C@@H]1OC           0.15
11  C#CCONC(=O)O[C@H]1[C@@H](O)[C@H](Oc2ccc3c(O)c(C(=O)NCCO)c(=O)oc3c2C)OC(C)(C)[C@@H]1OC           0.08
12  C#CCONC(=O)O[C@H]1[C@@H](O)[C@H](Oc2ccc3c(O)c(C(C)=O)c(=O)oc3c2C)OC(C)(C)[C@@H]1OC            0.6

----------
# System: Staphylococcus aureus
# ASSAY_INFO: Antibacterial activity against Staphylococcus aureus 011HT3
# Assay type: functional
QUANTITY_KIND: MIC (µg/mL)

> print(dat)
                                   compound  quantity.kind  censoring.qualifier  result.number
1  C#CCONC(=O)O[C@H]1[C@@H](O)[C@H](Oc2ccc3c(O)c(C(=O)Nc4cccnc4)c(=O)oc3c2C)OC(C)(C)[C@@H]1OC            MIC                    <           0.04
2  C#CCONC(=O)O[C@H]1[C@@H](O)[C@H](Oc2ccc3c(=O)c(/C(C)=N/OCOCCOC)c(O)oc3c2C)OC(C)(C)[C@@H]1OC            MIC                    =           0.08
3  C=CCONC(=O)O[C@H]1[C@@H](O)[C@H](Oc2ccc3c(=O)c(C(=O)OCC)c(O)oc3c2C)OC(C)(C)[C@@H]1OC            MIC                    =             10
4  CO[C@@H]1[C@@H](OC(=O)c2ccc(C)[nH]2)[C@@H](O)[C@H](Oc2ccc3c(O)c(C(N)=O)c(=O)oc3c2C)OC1(C)C            MIC                    <           0.04
5  CCOC(=O)c1c(O)oc2c(C)c(O[C@@H]3OC(C)(C)[C@H](OC)[C@@H](OC(=O)NC(C)C)[C@H]3O)ccc2c1=O            MIC                    >             40
6  CCONC(=O)OC1[C@@H](O)[C@H](Oc2ccc3c(O)c(C(=O)OCC)c(=O)oc3c2C)OC(C)(C)[C@@H]1OC (single isomer, unassigned)            MIC                    =             20
7  C#CCONC(=O)O[C@H]1[C@@H](O)[C@H](Oc2ccc3c(=O)c(C(=O)NOC)c(O)oc3c2C)OC(C)(C)[C@@H]1OC            MIC                    =           0.08

----------
# Test system: Staphylococcus aureus
# ASSAY_INFO: Antibacterial activity tested against novobiocin resistant Staphylococcus aureus 011HT1
# Type: functional
Field: label. Allowed values: MET (MIC < 2 µg/mL) or NOT MET (MIC >= 2 µg/mL).

> print(dat)
                                    molecule  category.label
 1  C#CCONC(=O)O[C@H]1[C@@H](O)[C@H](Oc2ccc3c(=O)c(C(=O)NOC)c(O)oc3c2C)OC(C)(C)[C@@H]1OC         NOT MET
 2  C#CCONC(=O)O[C@H]1[C@@H](O)[C@H](Oc2ccc3c(O)c(/C(C)=N/OCc4ccsc4)c(=O)oc3c2C)OC(C)(C)[C@@H]1OC         NOT MET
 3  CO[C@@H]1[C@@H](OC(=O)c2ccc(C)[nH]2)[C@@H](O)[C@H](Oc2ccc3c(O)c(C(C)=O)c(=O)oc3c2C)OC1(C)C         NOT MET
 4  CCONC(=O)OC1[C@@H](O)[C@H](Oc2ccc3c(O)c(C(=O)OCC)c(=O)oc3c2C)OC(C)(C)[C@@H]1OC (single isomer, unassigned)         NOT MET
 5  CO/N=C(\C)c1c(O)oc2c(C)c(O[C@@H]3OC(C)(C)[C@H](OC)[C@@H](OC(=O)c4ccc(C)[nH]4)[C@H]3O)ccc2c1=O         NOT MET
 6  C#CCONC(=O)O[C@H]1[C@@H](O)[C@H](Oc2ccc3c(O)c(C(=O)Nc4cccnc4)c(=O)oc3c2C)OC(C)(C)[C@@H]1OC             MET
 7  C#CCONC(=O)O[C@H]1[C@@H](O)[C@H](Oc2ccc3c(=O)c(/C(C)=N/OCOCCOC)c(O)oc3c2C)OC(C)(C)[C@@H]1OC         NOT MET
 8  C#CCNC(=O)O[C@H]1[C@@H](O)[C@H](Oc2ccc3c(=O)c(C(=O)OCC)c(O)oc3c2C)OC(C)(C)[C@@H]1OC         NOT MET
 9  C#CCONC(=O)O[C@H]1[C@@H](O)[C@H](Oc2ccc3c(O)c(C(=O)NOCC=C(C)C)c(=O)oc3c2C)OC(C)(C)[C@@H]1OC             MET
10  C#CCONC(=O)O[C@H]1[C@@H](O)[C@H](Oc2ccc3c(=O)c(/C(C)=N/OC)c(O)oc3c2C)OC(C)(C)[C@@H]1OC         NOT MET
11  CO[C@@H]1[C@@H](OC(=O)c2ccc(C)[nH]2)[C@@H](O)[C@H](Oc2ccc3c(O)c(C(N)=O)c(=O)oc3c2C)OC1(C)C         NOT MET
12  CCOC(=O)c1c(O)oc2c(C)c(O[C@@H]3OC(C)(C)[C@H](OC)[C@@H](OC(N)=O)[C@H]3O)ccc2c1=O         NOT MET
13  C#CCONC(=O)O[C@H]1[C@@H](O)[C@H](Oc2ccc3c(=O)c(C(=O)NOCC)c(O)oc3c2C)OC(C)(C)[C@@H]1OC             MET
14  CC#CCONC(=O)O[C@H]1[C@@H](O)[C@H](Oc2ccc3c(=O)c(C(=O)OCC)c(O)oc3c2C)OC(C)(C)[C@@H]1OC         NOT MET
15  C#CCONC(=O)O[C@H]1[C@@H](O)[C@H](Oc2ccc3c(=O)c(C(=O)OCC)c(O)oc3c2C)OC(C)(C)[C@@H]1OC         NOT MET
16  C=CCONC(=O)O[C@H]1[C@@H](O)[C@H](Oc2ccc3c(=O)c(C(=O)OCC)c(O)oc3c2C)OC(C)(C)[C@@H]1OC         NOT MET
17  C#CCONC(=O)O[C@H]1[C@@H](O)[C@H](Oc2ccc3c(=O)c(/C(C)=N/OCC)c(O)oc3c2C)OC(C)(C)[C@@H]1OC         NOT MET
18  C#CCONC(=O)O[C@H]1[C@@H](O)[C@H](Oc2ccc3c(O)c(/C(C)=N/OCCN4CCOCC4)c(=O)oc3c2C)OC(C)(C)[C@@H]1OC         NOT MET
19  C#CCONC(=O)O[C@H]1[C@@H](O)[C@H](Oc2ccc3c(O)c(C(N)=O)c(=O)oc3c2C)OC(C)(C)[C@@H]1OC             MET
20  CO[C@@H]1[C@@H](OC(N)=O)[C@@H](O)[C@H](Oc2ccc3c(O)c(NC(=O)c4ccc(O)c(CC=C(C)C)c4)c(=O)oc3c2C)OC1(C)C         NOT MET
21  CCOC(=O)c1c(O)oc2c(C)c(O[C@@H]3OC(C)(C)[C@H](OC)[C@@H](OC(=O)c4ccc(C)[nH]4)[C@H]3O)ccc2c1=O         NOT MET
22  C#CCONC(=O)O[C@H]1[C@@H](O)[C@H](Oc2ccc3c(O)c(C(=O)NCCO)c(=O)oc3c2C)OC(C)(C)[C@@H]1OC             MET
23  CCOC(=O)c1c(O)oc2c(C)c(O[C@@H]3OC(C)(C)[C@H](OC)[C@@H](OC(=O)NOC(C)C)[C@H]3O)ccc2c1=O         NOT MET
24  CCOC(=O)c1c(O)oc2c(C)c(O[C@@H]3OC(C)(C)[C@H](OC)[C@@H](OC(=O)NOC)[C@H]3O)ccc2c1=O         NOT MET
25  CCOC(=O)c1c(O)oc2c(C)c(O[C@@H]3OC(C)(C)[C@H](OC)[C@@H](OC(=O)NC(C)C)[C@H]3O)ccc2c1=O         NOT MET
26  C#CCONC(=O)O[C@H]1[C@@H](O)[C@H](Oc2ccc3c(O)c(C(=O)NCCN4CCOCC4)c(=O)oc3c2C)OC(C)(C)[C@@H]1OC             MET
27  C=CCNC(=O)O[C@H]1[C@@H](O)[C@H](Oc2ccc3c(=O)c(C(=O)OCC)c(O)oc3c2C)OC(C)(C)[C@@H]1OC         NOT MET
28  C#CCONC(=O)O[C@H]1[C@@H](O)[C@H](Oc2ccc3c(O)c(C(C)=O)c(=O)oc3c2C)OC(C)(C)[C@@H]1OC         NOT MET
